system: SN12C renal; experiment: NCI tumour cell line growth inhibition, 48 h
Reported TGI is given for each of the following molecules.
# number only, unit µM dropped from output

INSERT INTO results (structure_as_smiles, observed_value) VALUES
  ('Cc1cn2c(/C=N/N=C(N)N)c(-c3ccccn3)nc2s1', 29.5);

In: Given the entry `C[C@]12CC[C@@H]3c4ccc(O)cc4CC[C@H]3[C@@H]1CC[C@@H]2OC(=O)CCc1ccccc1` , what TGI was observed with SN12C renal?
Out: 49.6

In: // next record `CSc1snc2sc3c(Cl)nnnc3c12`
Out: 28.7

----------
test system: SR leukemia; test: NCI tumour cell line growth inhibition, 48 h
Reported TGI is given for each of the following compounds.
# number only, unit µM dropped from output

INSERT INTO assay_data (compound, system_tested, observed_value) VALUES
  ('ONC1=Nc2ccccc2C(=S)N2CSCC12 (stereo not given)', 'SR leukemia', 89);

In: Given the entry `N#CC(C#N)N=Nc1ccc(-c2nc3ccccc3o2)cc1` , what TGI was observed with SR leukemia?
Out: 42.6

In: // next record CCCCNC(=O)C1C2CCC(O2)C1C(=O)O (stereo not given)
Out: 95.4

In: // next record `OCc1cc2ccncc2c2c1[nH]c1ccccc12`
Out: 20

The origin of these recorded values is PubChem BioAssay (NCI).
